Parameter: ABSOLUTE LYMPHOCYTE. Scope: all listed entries.
Species on record: Rattus norvegicus
procedure_summary: DrugMatrix - Regimen: Daily Repeat
Assay type: toxicity, organism-based, Sprague-Dawley
Design: regimen Daily Repeat, gender Male, age 6-8 weeks
study_conditions: in vivo, po, 1500 mg/kg, 120 h, tissue Blood, route oral GAVAGE, dose level High, time 5 day, vehicle .5 % CMC

compound | ABSOLUTE LYMPHOCYTE [CELLS/uL]
CCOC(=O)[C@H](CCc1ccccc1)N[C@@H](C)C(=O)N1CCC[C@H]1C(=O)O | 15341.33
Nc1nc2c(c(=O)[nH]1)N(C=O)C(CNc1ccc(C(=O)N[C@@H](CCC(=O)O)C(=O)O)cc1)CN2 (some centres undefined) [LEUCOVORIN] | 14356
CC(C)(Sc1cc(C(C)(C)C)c(O)c(C(C)(C)C)c1)Sc1cc(C(C)(C)C)c(O)c(C(C)(C)C)c1 [PROBUCOL] | 11157.33
C[C@@H](O)[C@H]1C(=O)N2C(C(=O)O)=C(S[C@@H]3CN[C@H](C(=O)N(C)C)C3)[C@H](C)[C@H]12 [MEROPENEM] | 12982

* * *

Parameter: GLUCOSE. Scope: all listed entries.
Species on record: Rattus norvegicus
procedure_summary: DrugMatrix - Regimen: Daily Repeat
Format: toxicity, organism-based, Sprague-Dawley
Set-up: regimen Daily Repeat, gender Male, age 6-8 weeks
study_conditions: in vivo, po, 0 mg/kg, 120 h, tissue Plasma, route oral GAVAGE, dose level Control, time 5 day, vehicle 100 % WATER

compound | measurement_units | GLUCOSE
OCCO | mg/dL | 153.67
CCN(CC)CC#CCOC(=O)C(O)(c1ccccc1)C1CCCCC1 (configuration not stated) | mg/dL | 143.33
O=C(O)c1cc(=O)c2c(OCC(O)COc3cccc4oc(C(=O)O)cc(=O)c34)cccc2o1 | mg/dL | 201
Nc1ccc(S(=O)(=O)Nc2nccs2)cc1 | mg/dL | 135.67
CCN[C@@H](C)Cc1cccc(C(F)(F)F)c1 | mg/dL | 180.67
CC[C@H]1OC(=O)[C@H](C)[C@@H](O[C@H]2C[C@@](C)(OC)[C@@H](O)[C@H](C)O2)[C@H](C)[C@@H](O[C@@H]2O[C@H](C)C[C@H](N(C)C)[C@H]2O)[C@](C)(O)C[C@@H](C)CN(C)[C@H](C)[C@@H](O)[C@]1(C)O | mg/dL | 152.33
CC[C@H]1OC(=O)[C@H](C)[C@@H](O[C@H]2C[C@@](C)(OC)[C@@H](O)[C@H](C)O2)[C@H](C)[C@@H](O[C@@H]2O[C@H](C)C[C@H](N(C)C)[C@H]2O)[C@](C)(OC)C[C@@H](C)C(=O)[C@H](C)[C@@H](O)[C@]1(C)O | mg/dL | 133

* * *

Parameter: ALKALINE PHOSPHATASE. Scope: all listed entries.
Species on record: Rattus norvegicus
procedure_summary: DrugMatrix - Regimen: Daily Repeat
Type: toxicity, organism-based, Sprague-Dawley
Set-up: regimen Daily Repeat, gender Male, age 6-8 weeks
study_conditions: in vivo, po, 0 mg/kg, 72 h, tissue Plasma, route oral GAVAGE, dose level Control, time 3 day, vehicle 100 % SALINE
property_name: ALKALINE PHOSPHATASE (u/L)

compound | value_observed
CCCc1nn(C)c2c(=O)[nH]c(-c3cc(S(=O)(=O)N4CCN(C)CC4)ccc3OCC)nc12 | 356.33
Cc1cc(CC(=O)O)n(C)c1C(=O)c1ccc(Cl)cc1 [ZOMEPIRAC] | 327.67
CC(=O)OCC(CCn1cnc2cnc(N)nc21)COC(C)=O | 356.33
Oc1ccccc1O | 327.67

* * *

Parameter: LEUKOCYTE COUNT. Scope: all listed entries.
Species: Rattus norvegicus
procedure_summary: DrugMatrix - Regimen: Daily Repeat
Assay type: toxicity, organism-based, Sprague-Dawley
Set-up: regimen Daily Repeat, gender Male, age 6-8 weeks
study_conditions: in vivo, po, 0 mg/kg, 72 h, tissue Blood, route oral GAVAGE, dose level Control, time 3 day, vehicle 100 % WATER

molecule | LEUKOCYTE COUNT [x10E3/uL]
Nc1ccc(S(=O)(=O)Nc2ncccn2)cc1 [SULFADIAZINE] | 13.7
Cc1c(N(C)CS(=O)(=O)[O-])c(=O)n(-c2ccccc2)n1C.[Na+] [DIPYRONE SODIUM] | 16.3
CCCCCCCCCCCCCCCC[n+]1ccccc1.[Br-] | 12.87
O=P1(N(CCCl)CCCl)NCCCO1 (stereo not drawn) [CYCLOPHOSPHAMIDE ANHYDROUS] | 10.2
CC[C@H]1OC(=O)[C@H](C)[C@@H](O[C@H]2C[C@@](C)(OC)[C@@H](O)[C@H](C)O2)[C@H](C)[C@@H](O[C@@H]2O[C@H](C)C[C@H](N(C)C)[C@H]2O)[C@](C)(OC)C[C@@H](C)C(=O)[C@H](C)[C@@H](O)[C@]1(C)O [CLARITHROMYCIN] | 15.1
CCOC(N)=O | 14.02
CCCc1nn(C)c2c(=O)[nH]c(-c3cc(S(=O)(=O)N4CCN(C)CC4)ccc3OCC)nc12 | 8.43
Nc1ccc(S(=O)(=O)Nc2nccs2)cc1 [SULFATHIAZOLE] | 9.43

* * *

Species on record: Rattus norvegicus
procedure_summary: DrugMatrix - Regimen: Daily Repeat
Format: toxicity, organism-based, Sprague-Dawley
Parameters: regimen Daily Repeat, gender Male, age 6-8 weeks
study_conditions: in vivo, po, 0 mg/kg, 120 h, tissue Blood, route oral GAVAGE, dose level Control, time 5 day, […]
Parameter: ABSOLUTE BASOPHIL. Scope: all listed entries.

compound | measurement_units | ABSOLUTE BASOPHIL
NC[C@@H]1O[C@H](O[C@H]2[C@@H](O)[C@H](O[C@@H]3[C@@H](O)[C@H](N)C[C@H](N)[C@H]3O[C@H]3O[C@H](CN)[C@@H](O)[C@H](O)[C@H]3N)O[C@@H]2CO)[C@H](N)[C@@H](O)[C@@H]1O | CELLS/uL | 0
CC(C)OC(=O)C(C)(C)Oc1ccc(C(=O)c2ccc(Cl)cc2)cc1 [FENOFIBRATE] | CELLS/uL | 0
CC(C)Cc1ccc(CC(=O)O)cc1 | CELLS/uL | 0
C#C[C@]1(O)CC[C@H]2[C@@H]3CCc4cc(O)ccc4[C@H]3CC[C@@]21C | CELLS/uL | 0
CN(CCOc1ccc(CC2SC(=O)NC2=O)cc1)c1ccccn1 (stereo not drawn) | CELLS/uL | 0
CCn1cc(C(=O)O)c(=O)c2cc(F)c(N3CCNCC3)nc21 | CELLS/uL | 0
CS(=O)(=O)OCCCCOS(C)(=O)=O | CELLS/uL | 0

* * *

Species on record: Rattus norvegicus
procedure_summary: DrugMatrix - Regimen: Daily Repeat
Assay type: toxicity, organism-based, Sprague-Dawley
Design: regimen Daily Repeat, gender Male, age 6-8 weeks
study_conditions: in vivo, po, 0 mg/kg, 120 h, tissue Plasma, route oral GAVAGE, dose level Control, time 5 day, vehicle .5 % CMC
Label scheme for LACTATE DEHYDROGENASE: lower than 500 u/L is no (0), 500 u/L and above is yes (1).

compound | assigned_class
COc1ccc(/C=C/C(=O)Nc2ccccc2C(=O)O)cc1OC | no (0)
CN1C(=O)CN=C(c2ccccc2)c2cc(Cl)ccc21 | no (0)
O=c1cc(-c2ccccc2)oc2ccc3ccccc3c12 | no (0)
CCCCC1C(=O)N(c2ccccc2)N(c2ccccc2)C1=O | yes (1)
C[C@@H]1CC[C@H]2[C@@H](C)C(=O)O[C@@H]3O[C@@]4(C)CC[C@@H]1[C@]32OO4 | yes (1)
Nc1cccc(Cl)c1 | no (0)
COc1ccccc1OCC(O)COC(N)=O (stereo not drawn) | yes (1)

* * *

Species: Rattus norvegicus
procedure_summary: DrugMatrix - Regimen: Daily Repeat
Assay type: toxicity, organism-based, Sprague-Dawley
Parameters: regimen Daily Repeat, gender Male, age 6-8 weeks
study_conditions: in vivo, po, 0 mg/kg, 72 h, tissue Plasma, route oral GAVAGE, dose level Control, time 3 day, […]
Parameter: CHOLESTEROL. Scope: all listed entries.

molecule | measurement_units | CHOLESTEROL
CN(CCOc1ccc(CC2SC(=O)NC2=O)cc1)c1ccccn1 (centres undefined) | mg/dL | 71.33
CCn1cc(C(=O)O)c(=O)c2cc(F)c(N3CCNCC3)nc21 | mg/dL | 68.67
CC[C@H](C)C(=O)O[C@H]1C[C@@H](C)C=C2C=C[C@H](C)[C@H](CC[C@@H]3C[C@@H](O)CC(=O)O3)[C@H]21 | mg/dL | 66
CC(=O)Nc1nnc(S(N)(=O)=O)s1 [ACETAZOLAMIDE] | mg/dL | 82.5
